biological target: human MCHR1 (Homo sapiens); construct: expressed in transfected cells; host or cells: CHO cell clone 57 (described in WO01/82925); membrane fraction; test: Human MCH receptor 1 (MCHR1) binding inhibitory activity, binding assay with [125I]-MCH(4-19); conditions: test compound 0.1 μM, human MCHR1-expressing CHO cell membrane fraction, read-out: Binding inhibition rate % (0.1 μM)
measured_metric: inhibition at 0.1 µM (%)

Below, each entry is followed by its recorded inhibition at 0.1 µM result.
molecule	inhibition at 0.1 µM [%]
COc1cc(-n2ccc3oc(-c4ccc(Cl)cc4)cc3c2=O)ccc1OCC(N)=O [Example 50]	85
CCC1(COc2ccc(-n3ccc4oc(-c5ccc(Cl)cc5)cc4c3=O)cc2OC)COC1 [Example 48]	71
COc1cc(-n2ccc3oc(-c4ccc(Cl)cc4)cc3c2=O)ccc1O [Example 30]	66
COc1cc(-n2ccc3oc(-c4ccc(Cl)cc4)cc3c2=O)ccc1OCC1(C)COC1 [Example 41]	97
COc1cc(-n2ccc3oc(-c4ccc(Cl)cn4)cc3c2=O)ccc1OCC1(C#N)CC1 [Example 19]	77
COc1cc(-n2ccc3oc(-c4ccc(Cl)cc4)cc3c2=O)ccc1OCC1CCOC1 (centres unmarked) [Example 39]	96

1: N#CC1(COc2ccc(-n3ccc4oc(-c5ccc(Cl)cc5)cc4c3=O)cc2Cl)CC1 [Example 8]
2: COc1cc(-n2ccc3oc(-c4ccc(Cl)s4)cc3c2=O)ccc1OCC1(C#N)CC1 [Example 12]
Lower value for measured inhibition at 0.1 µM? Options: 1 , 2 Identify your pick by its label.
2

###

biological target: human MCHR1 (Homo sapiens, UniProt Q99705); construct: expressed in transfected cells; host or cells: CHO cell clone 57 (described in WO01/82925); membrane fraction; assay: MCH receptor 1 antagonistic activity, Ca2+ mobilization assay; assay type: cell-based; conditions: test compound 0.1 μM; human MCHR1-expressing CHO cells (clone #4); MCH(4-19) 2 nM; read-out: Inhibition rate % (0.1 μM)
Sequence (Q99705 whole entry): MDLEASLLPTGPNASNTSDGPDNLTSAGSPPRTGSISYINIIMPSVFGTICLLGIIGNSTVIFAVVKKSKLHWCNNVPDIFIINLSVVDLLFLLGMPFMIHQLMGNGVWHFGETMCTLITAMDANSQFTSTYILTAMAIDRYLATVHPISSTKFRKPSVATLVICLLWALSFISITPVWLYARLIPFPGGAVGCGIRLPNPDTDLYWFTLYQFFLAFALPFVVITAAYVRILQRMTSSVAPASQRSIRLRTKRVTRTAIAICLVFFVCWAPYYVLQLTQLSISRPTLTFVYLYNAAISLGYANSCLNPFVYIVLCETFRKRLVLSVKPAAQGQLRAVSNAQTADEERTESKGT
measured_metric: inhibition at 0.1 µM (%)

Below, each entry is followed by its recorded inhibition at 0.1 µM result.
compound	measured_metric	test_result
COc1ccc(-c2cc3c(=O)n(-c4ccc(OCC5(C#N)CC5)c(OC)c4)ccc3o2)cc1	inhibition at 0.1 µM	97
COc1cc(-n2ccc3oc(-c4ccc(F)cc4)cc3c2=O)ccc1OCC1(C#N)CC1	inhibition at 0.1 µM	86
COc1cc(-n2ccc3oc(-c4ccc(Cl)cc4)cc3c2=O)ccc1OCC1(C)COC1	inhibition at 0.1 µM	92
COc1cc(-n2ccc3oc(-c4ccc(Cl)cc4)cc3c2=O)ccc1OCC1CCCO1 (stereo not shown)	inhibition at 0.1 µM	78
COc1cc(-n2ccc3oc(-c4ccc(Cl)cc4)cc3c2=O)ccc1OCC1CCO1 (stereo not shown)	inhibition at 0.1 µM	99

I: COc1cc(-n2ccc3oc(-c4ccc(Cl)cc4)cc3c2=O)ccc1OCC1COC1
II: COc1cc(-n2ccc3oc(-c4ccc(OC(F)(F)F)cc4)cc3c2=O)ccc1OCC1(C#N)CC1
Task for the reader: decide whether I or II has the larger inhibition at 0.1 µM. Identify your pick by its label.
I
(I: 95%, II: 24%)

###

molecular target: human MCHR1 (Homo sapiens, UniProt Q99705); construct: expressed in transfected cells; host or cells: CHO cell clone 57 (described in WO01/82925); membrane fraction; experiment: Human MCH receptor 1 (MCHR1) binding inhibitory activity, binding assay with [125I]-MCH(4-19); details: test compound 0.1 μM, human MCHR1-expressing CHO cell membrane fraction, read-out: Binding inhibition rate % (0.1 μM)
measured_metric: inhibition at 0.1 µM (%)

compound	test_result
COc1cc(-n2ccc3oc(-c4ccc(Cl)cc4)cc3c2=O)ccc1OCC1CCO1 (stereo not drawn)	92
COc1cc(-n2ccc3oc(-c4ccc(Cl)cc4)cc3c2=O)ccc1OCC1COC1	91
COc1cc(-n2ccc3oc(-c4ccc(Cl)cc4)cc3c2=O)ccc1OCCCC(N)=O	90
